- method summary: soluble on expression in E. coli; label from the status in PepcDB or PDB records
readout kind: soluble on expression in E. coli

Look over these answered cases.
macromolecule sequence	soluble on expression in E. coli
MSESIESYGIRLLNVYRETICDGPGLHYSIYLAGCRHACPGCHNPSSWDPEAGVLMTDSILGNIIREINANPLLDGITLSGGDPFYNPAGLTCLLQRLRASCTLPIWCYTGYTLEQLETDPMLSAPLALIDVLVDGPFVRELFDPTLLWRGSSNQCIIRLHENLEHHHHHH	not soluble
MVNIDKIIGINNLPLANGLGEYAKRMEAVLGKNILSLVMDKRYKDMDYAGRKIYGYYPPITNGYLLNVYLSRSILKKYYKGKFPHLLSPFFYLGSEYESKSIITIHDTYYKWEKNKMQRLSKKIVRKYRSFKNIISISEQTKNDLIADGYDADNISVIYNYIDPIFRKLESINKDEKTVLTVGDGIHKNNILVNKIVNGRYYHIHIGKEVRADENYSGISTEELVKLYNRASVLIRLSDYEGFGYPPLEALFCGTPAVVSDIAVFRELLGDSAVYVKKDEVSILDGIEYAIQNRKEMLNRFESKIKSRYTKERFISNMIKYYKDL	soluble
SNASKGMALRSVGGMVIESPRNETEHWLLETVGRQAQQAGIGMPTVAIYDSADINAFATGAKRDDSLVAVSTGLLHNMTRDEAEAVLAHEVSHIANGDMVTMTLMQG	soluble
MSLIYQIAKEFDFCYGHRVWSQELNPDFSLDPCLSCRHLHGHQGKVIVHLESRELQRGMVTDFAHLNWFKRFIDEVLDHRFIIDIDDPLFPTLLPHFADKSALVWMEEGYARVDFERIKGESSPILELYESFVVVRFVPTSESIASWLLELLRSRIQPLGVKVSSVEFLETPKSRARVYNEGHHHHHH	soluble
MPGYAQYRSFSEDLSMNMEEIVALSVKHNVSDLHLCSAWPARWRIRGRMEAAPFDAPDVEELLREWLDDDQRAILLENGQLDFAVSLAENQRLRGSAFAQRQGISLALRLLPSHCPQLEQLGAPPVLPELLKSENGLILVTGATGSGKSTTLAAMVGYLNQHADAHILTLEDPVEYLYASQRCLIQQREIGLHCMTFASGLRAALREDPDVILLGELRDSETIRLALTAAETGHLVLATLHTRGAAQAVERLVDSFPAQEKDPVRNQLAGSLRAVLSQKLEVDKQEGRVALFELLINTPAVGNLIREGKTHQLPHVIQTGQKVGMLTFQQSYQQRVGEGRL	not soluble
MSEHLTLPTNKPQVTHFSSGPCAKHPGWSVSNLENACLGRSHRSEDGKAKLSEVIERSKQILGLPADYRLGIVPASDTGAVEMALWSLLGQRPLDILAWESFGQEWVKDVVDELKLPDVRLLKAPYGGLPNLDEVDFSHDVVFLWNGTTSGVRVPNGDWIKDDRQGLTICDATSAVFAMDIPWEKIDVLTYSWQKVLGGEAQHGVIVLSPRAVERLQTYEPAWPIPKIFRLSQKGKLIEGIFKGDTINTPSMLCVEDALDALIWAESVGGLPGLISRSEANLAAIAQWVKQSNWADFLAEKPETRSCTSICLKIVDAAFASLSAEDQGKFAKKLAKLLEKQQVAYDIAPYRAAPPGLRIWGGATVETADIEALLPWLDWAYANVKAEFVPVA	soluble
MRGSHHHHHHGLVPRGSMIRTMLQGKLHRVKVTHADLHYEAGSCAIDQDFLDAAGILENEAIDIWNVTNGKRFSTYAIAAERGSRIISVNGAAAHCASVGDIVIIASFVTMPDEEARTWRPNVAYFEGDNEMKRTAKAIPVQVA	soluble
MMYIDNEVLEKMIMTMVEGFNRLEKKLDRMNRLKDCLDGDTLLDNCDLAQLLGVTQRTIARYREKGLIRYYQTDENGKNFYRSSEIQDFLRHRGKKK	not soluble

Task item: Which soluble on expression in E. coli is reported for this sequence? MHKNREKNAMRREVNRADIGGKSGNKVKDCHVTIIRSLLSQIKENSLRVLLTYRKLFTINTKIAVEFIINSCIVYYKRSPHLL
Reply: not soluble

Task item: Requested field: soluble on expression in E. coli. Item: MTSFSLIATAAMGLESVVAEEVRRLGYECQVENGKVTFEGDALAICRANLWLRTADRVKLKVGEFRATTFEELFEQTKALPWADYLPKDAEFPVIGKSVKSTLFSVSDCQAIVKKAVVESLKARYHLSWFPETGPLYRIEVALHKDIATLTIDTSGAGLHKRGYRARQGEAPLRETLAAALVLLTNWTPDRPFVDPFCGSGTIAIEAALIGQNIAPGFNRDFVSEQWPWIGESVWEEARQEAEQMARYDQPLDICGIDLDPHMVEIAKMNAAEAGLSDLISFREGRAEQFRTDAQYGVIVGNPPYGERLGEQREVEALYRAIGRAFAALDTWSVYILTAHRGFETHYGRPATKRRKLFNGFIETHYYQYWGPRPPREARS
Reply: not soluble

Task item: Using the record for MTSTFDRVATIIAETCDIPRETITPESHAIDDLGIDSLDFLDIAFAIDKAFGIKLPLEKWTQEVNDGKATTEQYFVLKNLAARIDELVAAKGALEHHHHHH , report its soluble on expression in E. coli.
Reply: soluble

Task item: soluble on expression in E. coli for MAHHHHHHMDSQTPHGDVVDEATMAVLPEHGLIFSEIKQMQLLLCKPKLLPVKSYSLEKLEKMEKKLAREAKEKRDANRAQRQAPLVWTSPDLTAGEGVKTIPAPSPLVTVAPAPPQNVASTPLRDGGATPPSAAPAVASSASSRGAASQETLSFTPVHTEGETCADASMSAPERSPRISPSTDVSSSSPSPSASTTD ?
Reply: soluble

Task item: Which soluble on expression in E. coli value is on record for MIVLETERLNLRWFDIKDAPFILELVNDPAWIQFIGDKGVRNLEDAKNYIVNGPIDMYNKLRFGLYLVERKEDLTPLGMCGLIKRDSLEDVDIGFAFLETFRSKGYGYESASAIIEYGVQKLGMKRIVAITSIDNIASGKLLEKVGLRFEKIISDSGEDLKLFGYNA ?
Reply: not soluble

---

- method summary: soluble on expression in E. coli; label from the status in PepcDB or PDB records

macromolecule sequence	soluble on expression in E. coli
MAGEKAQKKGKEKWKEKTWYTVESPPYLGSKEVTVALGEDPESMVNRIVEVPISDLTGNFKKSNEKALFRITGCEGTKCKTIFIGHYIGDDYIRRLVRRRKERIDIIEDVKTSDGSIITVKIVVVSDGKLTNTKKSEIRKALTSFIVSKGSQLSYADFVRYLIGDDSYNDMVEATKNIYPLRKIEIRKSELVSLSGMQEPQKNEPAPGGEAIAQNLEHHHHHH	soluble
MSLRTILVTGASGFVGGALCRQLATLGSFAIRAASRDLGGASVAGIQAVTVADLSATTDWARALSGVDLVVHAAARVHVMKETASDSLAEFRRVNVDGTLNLARQAAAAGVRRFIFISSIKVNGESSQPGQPLRADDSPAPQDAYGVSKHEAEQGLRQLAAATGMEVVVIRPVLVYGPGVKANFHSMMRWLQRGVPLPFGAVCNRRSLVSLANLVDLVVTCIDHPRAANQTFLASDGDDVSLTQLLRALGLALGRPARLLPVPAGLLRGAVLLIGRRDLAQRLFGTLQVDIEKNRQLLGWYPPCTLEQGLNMTARSFLGARREGHHHHHH	soluble

---

- method summary: soluble on expression in E. coli; label from the status in PepcDB or PDB records

macromolecule sequence	soluble on expression in E. coli
MGSDKIHHHHHHANQKSEHDHVAKVPKSYLPSGSVMAKEASANLKLSEKLSLIDGQWDSTTDDAASYEMDEQDYQAVATCRKSIEKLYDEKLYPVNLSPDYSNWYTWEAAAKKASDNTFNTYTAYYWIIRFEKYDGTQNHTIWMLEDGTIIMAKAHMKDISDMSEYKEVLQADDESQAENDLSAYKGYFDYSGIDFSKLNLISETTAVEQKNNESYEVLQFLQENEYVYAIHEK	not soluble
MSRLVIPSHSPNEEGNVVRVTPESAGWEYVGFEVYVLAKGQTLRKETKDQEACLVLLKGKANISTKLERWEQIGLRMDVSEKVPPYSVYIPSNDFYEVQAVTDLELAVCLAPGKGTYPARLIPPSEVGVEIRGAGNIERRVHNILPESQPADSLLVVEVFTPEGNWSSYPPHKHDQDNLPHESYLEETYYHKINPDHGFMVQRVYTDDRSIDETMVVKNGDVVLVPKGYHPVSAPPGYEGYYLNVMAGPVRTWKFHNDPDHEWVMESKLAAKQK	not soluble

---

- method summary: soluble on expression in E. coli; label from the status in PepcDB or PDB records
readout kind: soluble on expression in E. coli

// below: answered sequences
macromolecule sequence	value reported
MLPFFKELQTCTEMLEKNPQDATALFQKAVLLYKARRFEAALQLIEQVLEIVPDDFRVWYNRGVVLSEMGRLEDALAAYDRVIELEPVFEMAWDNKGVVLARLGRFEEALETYEKVLLRNPKYAEAWAGKGSVLSALDRKEEALEAYLSALKIRPDYLEALKSVGSLFSRLGRYEEALAAYDTALQAAPEAPELWAGRGLVLSELDRQEEALQSCSRALELKPGFAPALEVKVKILSEIGRQKARASQLEHHHHHH	soluble
MIVRTLLDTDLYKFTTSYAYIKLFPYAMGTFSFNDRNETEYTEEFLEALKSEFNKLSRLRLTEEELEYMTRNCRFLPRVYWEWLSSFRFDPDKIDIHLDTTGRLHIEVSDFLYKVTLYEVPLLAIVSEIKNKFFGNVPDMSEILCKLSEKVELSNQHQLRFSEFGTRRRFSIDVQETVIKRLNDTAKYCTGTSNCYFAMKYGMKMMGTHPHEWFMFHGAQFGYKHANYMALENWVNVYDGDLGIALSDTYTSGIFLSNLSRKQAKLFDGVRCDSGNEFDFIDKLVARYKELGIDATTKTIVFSNALDFTKALEIQEYCKDKIRCSFGIGTNLTNDTGFAPSNIVMKLTQCKMNVNQEWRECIKLSDDEGKHTGSPEEVQACLYELRLAKLEHHHHHH	soluble
MLEAEVVALKDLIEVAGAVVSTLDLDTVLRHILTSAMRFAETPAGSIALYDGYRNDLTLHAHEGLTPEFVKTERWSVQPGGLTEQVLTRGEILFVNDTADTSFFHNPTALNEGIRSLICVPLMMQNRIVGILYLDDFVPRDFDKERMKLLSVLASFAAMAIDNAQLHARTR	not soluble
SLRTYFAQRAEMEQLAATEAMLRRQIADLEEQQVKLADPAYIAAQARERLGFVMPGDIPFQVQLPSTPLAPPQPGSDAATATNNEPWYTALWHTIADDPHLPPAAPPAPEPGRPGPLPPASPNPEQPGG	soluble
MKLDAILWDYDGTLVNSVPKNIEITKAILAIVAPHLTGDNLPKYLHSEANYHYANHAAKNWQELYVDYYGMSHDEMLQAGGLWAEHQEKNQTPVTLFEGIDGVIKEFAQLPHGICSQNSQSNIRRVLSDNGISAPFKSIVGYDDVSNGHQKPDAYSGIKCVESIFGHAENRQLMYIGDHEADTQFARNIEQQLGGQSKVIAVAAAYSGAMPEHWSVQPDYVARTVDELFSIIAQHT	not soluble

Now turn to the next sequence.
Task item: Item under review: MSLGKLSILSKRKYTMKNQIQFSTFNFKDLPVRVILDPKGEFWFCGTDVCHILGYTNSRKALQDHCKQGGVTKRYTPTKSADQEMTFINEPNLYRLIIKSRKPEAEPFEAWVFEEVLPQIRKTGKYQLQPQQLALPEPEKKFSFEFTEYELQQLVWLWFAFMRGIVTFQHIEKAFKALGSNMSGDIYGQAYEYLSVYAQQTKSEGHHHHHH . Reported soluble on expression in E. coli?
Reply: not soluble
